- Test system: PEO1 cells
- Assay: Cytotoxicity, Neutral Red survival assay
- Assay type: cell-based, human
- Test Settings: Homo sapiens, PEO1, 24 h, read-out: IC50 of cell survival
Each entry below carries its recorded IC50.

Value lookup for IC50; key = COc1c(O)cc2oc(-c3ccc(O)cc3)cc(=O)c2c1O
181 µM

Can you handle O=C(O)C(=O)CBr next?
18.7 µM

###

- Test system: SKOV3 cells
- Assay: Cytotoxicity, Neutral Red survival assay
- Type: cell-based, human
- Test Settings: Homo sapiens, SK-OV-3, read-out: IC50 of cell survival (extrapolated)
Readout Type: IC50

Would you kindly share the measured IC50 for COc1c(O)cc2oc(-c3ccc(O)cc3)cc(=O)c2c1O [Hispidulin] ?
> 100 µM
